Target: Mu-type opioid receptor (Cavia porcellus, UniProt P97266)
Sequence (P97266 whole entry): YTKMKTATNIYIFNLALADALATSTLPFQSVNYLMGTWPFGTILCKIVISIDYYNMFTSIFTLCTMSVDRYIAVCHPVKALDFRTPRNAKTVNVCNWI
pKi: −log10 of the molar value. Square brackets hold non-standard residues; d marks the D form. Peptide text beside a SMILES is read from it. Phe(4-NO2) = N[C@@H](Cc1ccc([N+](=O)[O-])cc1)C(=O)O; NMeY = CN[C@@H](Cc1ccc(O)cc1)C(=O)O

COMPOUND	TARGET_OF_ASSAY	pKi
CCNC(=O)[C@@H](CC(C)C)NC(=O)[C@H](CCCNC(=N)N)N(C)C(=O)[C@H](CCCNC(=N)N)NC(=O)[C@H](CC(C)C)NC(=O)[C@H](Cc1ccccc1)NC(=O)CNC(=O)CNC(=O)[C@H](Cc1ccc(O)cc1)NC	Mu-type opioid receptor (Cavia porcellus, UniProt P97266)	8.35
CN[C@@H](Cc1ccc(O)cc1)C(=O)N[C@@H](C)C(=O)NCC(=O)N[C@@H](Cc1ccccc1)C(=O)N[C@@H](CC(C)C)C(=O)N[C@@H](CCCNC(=N)N)C(=O)N[C@@H](CCCNC(=N)N)C(=O)N[C@@H](CC(C)C)C(N)=O (H-[NMeY]AGFLRRL-NH2)	Mu-type opioid receptor (Cavia porcellus, UniProt P97266)	8.90
CCNC(=O)[C@@H](CC(C)C)NC(=O)[C@H](CCCN=C(N)N)N(C)C(=O)[C@H](CCCN=C(N)N)NC(=O)[C@H](CC(C)C)NC(=O)[C@H](Cc1ccc([N+](=O)[O-])cc1)NC(=O)CNC(=O)CNC(=O)[C@H](Cc1ccc(O)cc1)NC	Mu-type opioid receptor (Cavia porcellus, UniProt P97266)	8.76
CN[C@@H](Cc1ccc(O)cc1)C(=O)NCC(=O)NCC(=O)N[C@@H](Cc1ccc([N+](=O)[O-])cc1)C(=O)N[C@@H](CC(C)C)C(=O)N[C@@H](CCCN=C(N)N)C(=O)N[C@@H](CCCN=C(N)N)C(=O)N[C@@H](CC(C)C)C(N)=O (H-[NMeY]GG[Phe(4-NO2)]LRRL-NH2)	Mu-type opioid receptor (Cavia porcellus, UniProt P97266)	9.00

* * *

compounds and their reported pIC50
Molecular target: Delta-type opioid receptor (Mus musculus)
Experiment: Evaluated for inhibitory activity against Opioid receptor delta 1 of mouse vas deferens (MVD).
pIC50: −log10 of the molar value.

MOLECULE_SMILES	pIC50
CN[C@@H](Cc1ccc(O)cc1)C(=O)NCC(=O)NCC(=O)N[C@H](Cc1ccccc1)C(=O)N[C@@H](CC(C)C)C(=O)N[C@@H](CCCNC(=N)N)C(=O)N[C@@H](CCCNC(=N)N)C(=O)N[C@@H](CC(C)C)C(N)=O	8.28
CN[C@@H](Cc1ccc(O)cc1)C(=O)NCC(=O)NCC(=O)N[C@@H](Cc1ccccc1)C(=O)N(C)[C@@H](CC(C)C)C(=O)N[C@@H](CCCNC(=N)N)C(=O)N[C@@H](CCCNC(=N)N)C(=O)N[C@H](CC(C)C)C(N)=O	7.60
CCCCCCNC(=O)[C@@H](CC(C)C)NC(=O)[C@H](CCCNC(=N)N)NC(=O)[C@H](CCCNC(=N)N)NC(=O)[C@H](CC(C)C)NC(=O)[C@H](Cc1ccccc1)NC(=O)CNC(=O)CNC(=O)[C@H](Cc1ccc(O)cc1)NC	7.65

* * *

So I've got IC50 readings for Mu-type opioid receptor (Cavia porcellus, UniProt P97266), take a look.

MOLECULE_SMILES	IC50
CC[C@H](C)[C@H](NC(=O)[C@H](CCCNC(=N)N)NC(=O)[C@H](CCCNC(=N)N)NC(=O)[C@H](CC(C)C)NC(=O)[C@H](Cc1ccccc1)NC(=O)CNC(=O)CNC(=O)[C@@H](N)Cc1ccc(O)cc1)C(N)=O	0.2 nM
CN[C@@H](Cc1ccc(O)cc1)C(=O)NCC(=O)NCC(=O)N[C@@H](Cc1ccccc1)C(=O)N(C)[C@@H](CC(C)C)C(=O)N[C@@H](CCCNC(=N)N)C(=O)N[C@@H](CCCNC(=N)N)C(=O)N[C@H](CC(C)C)C(N)=O	11.9 nM

* * *

compounds and their reported IC50
Molecular target: Delta-type opioid receptor (Mus musculus, UniProt P32300)
Sequence (P32300 whole entry): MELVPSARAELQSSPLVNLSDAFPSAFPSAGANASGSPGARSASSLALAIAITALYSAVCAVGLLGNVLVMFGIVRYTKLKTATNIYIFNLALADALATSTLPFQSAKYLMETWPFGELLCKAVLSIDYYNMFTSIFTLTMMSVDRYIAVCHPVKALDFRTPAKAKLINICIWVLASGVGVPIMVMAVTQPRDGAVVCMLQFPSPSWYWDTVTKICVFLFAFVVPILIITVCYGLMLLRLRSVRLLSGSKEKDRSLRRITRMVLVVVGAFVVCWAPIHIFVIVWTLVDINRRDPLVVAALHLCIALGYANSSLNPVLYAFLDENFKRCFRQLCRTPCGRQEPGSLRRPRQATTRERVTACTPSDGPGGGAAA
Experiment: Evaluated for inhibitory activity against Opioid receptor delta 1 of mouse vas deferens (MVD).
Peptide text beside a SMILES is read from it.
EXPERIMENTAL_READOUT: IC50 (nM)

COMPOUND	EXPERIMENTAL_READOUT	NUMERIC_RESULT
CCNC(=O)[C@@H](CC(C)C)NC(=O)[C@H](CCCNC(=N)N)N(C)C(=O)[C@H](CCCNC(=N)N)NC(=O)[C@H](CC(C)C)NC(=O)[C@H](Cc1ccccc1)NC(=O)CNC(=O)CNC(=O)[C@H](Cc1ccc(O)cc1)NC	IC50	7.4
CC(C)C[C@H](NC(=O)[C@H](CCCN=C(N)N)NC(=O)[C@H](CCCN=C(N)N)NC(=O)[C@H](CC(C)C)NC(=O)[C@H](Cc1ccccc1)NC(=O)CNC(=O)[C@H](C)NC(=O)[C@@H](N)Cc1ccc(O)cc1)C(N)=O (H-YAGFLRRL-NH2)	IC50	9.1
CN[C@@H](Cc1ccc(O)cc1)C(=O)NCC(=O)NCC(=O)N[C@@H](Cc1ccccc1)C(=O)N[C@@H](CC(C)C)C(=O)N[C@@H](CCCCN=C(N)N)C(=O)N[C@@H](CCCN=C(N)N)C(=O)N[C@H](CC(C)C)C(N)=O	IC50	12

Each recorded value in this set is attributed to ChEMBL document CHEMBL1124934.
